The compounds listed here are annotated with their Uterine Weight (X ± S.D.).
# Tested on: uterine endometrium of estrone-primed immature rabbits
# EXPERIMENT NOTES: Clauberg assay (progestational activity, McPhail)
# Assay type: in vivo, rabbit (New Zealand White)
# TEST SETTINGS: sc, 10 μg/rabbit daily
# include the unit after the value

COMPOUND	TESTED TARGET	Uterine Weight (X ± S.D.)
C#C[C@]1(C(C)=O)CC[C@H]2[C@@H]3C[C@H](C)C4=CC(=O)CC[C@]4(C)[C@H]3CC[C@@]21C [6α-Methyl-17α-ethynylprogesterone, 17α-Ethynyl-6α-methylprogesterone]	uterine endometrium of estrone-primed immature rabbits	3.68 ± 0.31 g
C#C[C@]1(C(C)=O)CC[C@H]2[C@@H]3CC[C@H]4CC(=O)CC[C@]4(C)[C@H]3CC[C@@]21C [5α-Dihydro-17α-ethynylprogesterone, 17α-Ethynyl-5α-pregnane-3,20-dione]	uterine endometrium of estrone-primed immature rabbits	1.33 ± 0.09 g
C#C[C@]1(C(C)=O)CC[C@H]2[C@@H]3CCC4=CC(=O)CC[C@]4(C)[C@H]3CC[C@@]21C [17α-Ethynylprogesterone, 17α-ethynylprogesterone]	uterine endometrium of estrone-primed immature rabbits	3.23 ± 0.83 g

## Task Query for uterine endometrium of estrone-primed immature rabbits: what Uterine Weight (X ± S.D.) does the record show for C#C[C@]1(C(C)=O)CC[C@H]2[C@@H]3CCC4=CC(=O)CC[C@@H]4[C@H]3CC[C@@]21C [17α-Ethynyl-19-norprogesterone, 17α-ethynyl-19-nor-4-pregnene-3,20-dione] ?
## Result 4.57 ± 0.67 g
